Numbers sourced from ChEMBL document CHEMBL3217643.

assay explanation: Blood clearance in iv dosed dog
Type: ADME, organism-based, Canis lupus familiaris

# compound, measurement units, clearance
measured = [
    ("COc1cccc(Oc2ccc3c(c2)CC(N)c2n[nH]c(=O)n2-3)c1 (stereo unspecified)", "mL/min/kg", 4.5),
]

---

assay explanation: Half life in human liver microsomes
Type: ADME

# compound, half-life
rows = [
    ("COc1cccc(Oc2ccc3c(c2)CC(N)c2n[nH]c(=O)n2-3)c1 (stereo unspecified)", "> 1.73 h"),
]

---

# maps each entry to its bioavailability
assay explanation: Oral bioavailability in dog
Format: ADME, organism-based, Canis lupus familiaris
measurement conditions: in vivo

# compound, measurement units, bioavailability
records = [
    ("N[C@H]1Cc2ccccc2N(O)C1=O", "%", 18.5),
    ("COc1cccc(Oc2ccc3c(c2)CC(N)c2n[nH]c(=O)n2-3)c1 (configuration not stated)", "%", 100),
]

---

tested on: Kynurenine/alpha-aminoadipate aminotransferase, mitochondrial (Homo sapiens, UniProt Q8N5Z0)
Sequence (Q8N5Z0 whole entry): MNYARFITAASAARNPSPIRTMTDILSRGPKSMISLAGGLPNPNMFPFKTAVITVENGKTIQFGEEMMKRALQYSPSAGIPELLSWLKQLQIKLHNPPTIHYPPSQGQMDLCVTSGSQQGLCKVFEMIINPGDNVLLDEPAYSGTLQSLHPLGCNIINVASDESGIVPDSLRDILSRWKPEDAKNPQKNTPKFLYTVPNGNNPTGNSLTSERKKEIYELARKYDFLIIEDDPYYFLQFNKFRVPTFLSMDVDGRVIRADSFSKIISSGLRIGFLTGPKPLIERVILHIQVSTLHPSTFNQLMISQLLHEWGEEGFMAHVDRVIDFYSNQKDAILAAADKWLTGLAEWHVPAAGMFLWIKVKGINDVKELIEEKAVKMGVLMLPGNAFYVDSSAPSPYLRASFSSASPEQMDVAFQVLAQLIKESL
Known IC50 of a selection of compounds
metric: IC50 (nM)

# compound, measurement units, obs value
records = [
    ("COc1cccc(Oc2ccc3c(c2)CC(N)c2n[nH]c(=O)n2-3)c1 (configuration not stated)", "nM", 65),
    ("COc1cccc(Oc2ccc3c(c2)CC(N)c2nncn2-3)c1 (configuration not stated)", "nM", 201),
]
